- procedure_summary: gradient 5% acetonitrile 3 min, to 50% in 2 min, to 85% in 15 min, held 3 min, 100 µL/min
- condition_set: column: Zorbax Extend-C18 2.1 x 50 mm; eluents: water / acetonitrile, 0.1% formic acid
reported_property: RP-LC retention time (s)
The figure you give is taken to be in s; do not add the unit.

{"compound": "NC1=NC(c2ccc(Cl)cc2)N(c2ccc(S(N)(=O)=O)cc2)C(N)=N1 (stereo not given)", "reported_value": 629}
{"compound": "COc1ccccc1-c1nc(Cn2cccc(S(=O)(=O)N3CCCC3)c2=O)no1", "reported_value": 736}
{"compound": "O=C(NCc1ccccc1)C1Cc2ccccc2CN1S(=O)(=O)c1ccccc1 (stereo not given)", "reported_value": 981}
{"compound": "NC(=O)C1CCN(Cc2nc(Cn3ccn4nc(-c5ccccc5)cc4c3=O)no2)CC1", "reported_value": 618}
{"compound": "O=C(Cn1ncc2c(N3CCN(c4ccccn4)CC3)ncnc21)Nc1cc(F)ccc1F", "reported_value": 615}

Item: Cc1c(NC(=O)c2ccc([N+](=O)[O-])cc2Cl)c(=O)n(-c2ccccc2)n1C | RP-LC retention time: 652

Item: O=C(O)Cc1sc(Nc2ccccc2Cl)nc1-c1ccccc1 | RP-LC retention time: 942
